The measurements presented in this section are drawn from the METLIN SMRT retention time set (Domingo-Almenara et al. 2019).

- PROTOCOL: gradient 5% acetonitrile 3 min, to 50% in 2 min, to 85% in 15 min, held 3 min, 100 µL/min
- MEASUREMENT SETUP: column: Zorbax Extend-C18 2.1 x 50 mm; eluents: water / acetonitrile, 0.1% formic acid
MEASUREMENT NAME: RP-LC retention time (s)

1. O=C(C1CCN(c2cncnc2N2CCCC2)CC1)N1CCN(c2ccc(F)cc2)CC1    670
2. CN(CCc1noc(COc2ccccc2)n1)C(=O)Cc1ccccc1    863
3. CNC(=O)Nc1ccc(C2(C(=O)NCc3ccc(F)cc3Cl)CCC2)cc1    784
4. Cn1c(CN2CCN(C(=O)c3ccco3)CC2)nc2cc(NC(=O)C3CCCCC3)ccc21    664
5. O=C(NCC1CCCO1)c1cn2ccccc2n1 (centres undefined)    565
6. CC(C)NC(=O)CCc1c(-c2ccccc2)nc2ccccn12    595
7. O=C(Cn1cnc2nc(N3CCCC(C(=O)NC4CC4)C3)sc2c1=O)Nc1ccc(F)cc1F (centres undefined)    673

[a] Cc1nc(NC(=O)Cc2c(C)[nH]c(=O)[nH]c2=O)sc1C(=O)Nc1ccccc1
[b] Cc1oc2ccn(Cc3ccccc3F)c(=O)c2c1C(=O)NC(C)c1ccccc1 (centres undefined)
Of the two listed items, which has the higher RP-LC retention time? First: a Second: b Let me know the label of the one you choose.
b
(b: 1150 s, a: 617 s)

---

- PROTOCOL: gradient 5% acetonitrile 3 min, to 50% in 2 min, to 85% in 15 min, held 3 min, 100 µL/min
- MEASUREMENT SETUP: column: Zorbax Extend-C18 2.1 x 50 mm; eluents: water / acetonitrile, 0.1% formic acid
MEASUREMENT NAME: RP-LC retention time (s)

1. CCCOc1ccc(CNC(=O)C2CCCN(c3ncnc4c3oc3ccccc34)C2)cc1 (centres undefined)    889
2. CSc1ccc(C2c3[nH]c4ccccc4c3CCN2C(=O)C2CC2)cc1 (centres undefined)    1120
3. O=C(Nc1ccccc1)c1ccc2c(cnn2CC(=O)N2CCCCCC2)c1    800
4. COc1ccc(-c2c(C)noc2NC(C)=O)cc1S(=O)(=O)NCC(C)c1ccccc1 (centres undefined)    838
5. CCc1ccccc1NS(=O)(=O)c1cc(-c2[nH]ncc2C(=O)N2CCOCC2)oc1C    721
6. CCCCS(=O)(=O)c1cc2c(cc1NC(=O)c1ccc(C)cc1)n(C)c(=O)n2C    955
7. Cc1ccc(-c2nc(-c3ccc4c(c3)ncn4CCN3CCOCC3)no2)cc1F    689
8. O=C1NCN(c2ccccc2)C12CCN(CC1COc3ccccc3O1)CC2 (centres undefined)    736
9. CC(C)Oc1ccc(C(=O)N(Cc2ccc(Br)o2)C2CCS(=O)(=O)C2)cc1 (centres undefined)    963

---

- PROTOCOL: gradient 5% acetonitrile 3 min, to 50% in 2 min, to 85% in 15 min, held 3 min, 100 µL/min
- MEASUREMENT SETUP: column: Zorbax Extend-C18 2.1 x 50 mm; eluents: water / acetonitrile, 0.1% formic acid
MEASUREMENT NAME: RP-LC retention time (s)

1) O=C(NCCCN1CCCCC1)C1CCN(c2cnn(Cc3ccccc3)c(=O)c2)CC1    606
2) COc1ccc(-c2ccc(=O)n(Cc3nc(-c4cccc(Br)c4)no3)n2)cc1    997
3) O=C(CCc1ccccc1)NC1CCS(=O)(=O)C1 (stereo not given)    619

[a] CCOc1ccccc1C1NC(=O)N(CC(=O)Nc2ccc3c(c2)CCC3)C2=C1C(=O)OC2 (stereo not given)
[b] Cc1ccn2cc(C(=O)NCCN(C)C3CCCCC3)nc2c1
Of the two listed items, which has the higher RP-LC retention time? First: a Second: b Let me know the label of the one you choose.
a
(a: 900 s, b: 572 s)

[I] O=C(Nc1ccc(N2CCN(c3ccccc3)C2=O)nc1)C1CCC1
[II] CN1CCN(CCCNC(=O)CN2C(=O)CCn3nc(-c4cn(C)c5ccccc45)cc32)CC1
Compare I and II and name the one whose reported RP-LC retention time is smaller. Let me know the label of the one you choose.
II
(II: 587 s, I: 844 s)

---

- PROTOCOL: gradient 5% acetonitrile 3 min, to 50% in 2 min, to 85% in 15 min, held 3 min, 100 µL/min
- MEASUREMENT SETUP: column: Zorbax Extend-C18 2.1 x 50 mm; eluents: water / acetonitrile, 0.1% formic acid
MEASUREMENT NAME: RP-LC retention time (s)

1. Cc1ccc(C2CC(=O)N(c3ccc(C(C)C)cc3)C(=O)C2)cc1    1120

[P] CCCN(C(=O)c1ccccc1C)c1nc(-c2ccccc2)cs1
[Q] O=S(=O)(c1ccccc1)N1CCN(c2cnn3c(C4CC4)nnc3c2)CC1
Compare P and Q and name the one whose reported RP-LC retention time is smaller. Let me know the label of the one you choose.
Q

---

- PROTOCOL: gradient 5% acetonitrile 3 min, to 50% in 2 min, to 85% in 15 min, held 3 min, 100 µL/min
- MEASUREMENT SETUP: column: Zorbax Extend-C18 2.1 x 50 mm; eluents: water / acetonitrile, 0.1% formic acid
MEASUREMENT NAME: RP-LC retention time (s)

1. CCN(CCNC(=O)C1CCCN(c2ncnc3c2nc2n3CCCCC2)C1)Cc1ccccc1 (stereo not given)    639
2. CC1CCCN(c2nn3c(C(=O)NCCc4c[nH]c5ccccc45)cc(=O)nc3s2)C1 (stereo not given)    838
3. O=C(O)CCc1csc(NC(=O)Nc2ccc(Cl)cc2)n1    717
4. Cc1cccc(-c2noc(Cn3ccnc3)n2)c1    630
5. O=C(CN1CCN(Cc2ccccc2)C1=O)N1CCN(C2CCCCC2)CC1    601
6. O=C(NCc1ccccc1)C1c2ccccc2CC(=O)N1Cc1ccccc1 (stereo not given)    850
7. COCCn1nnnc1C1CC2(CCOCC2)C(=O)N1CCc1ccc(OC)c(OC)c1 (stereo not given)    685
8. COc1cccc(NC(=O)C2CCN(S(=O)(=O)c3cn(C)cn3)CC2)c1    656
9. Cc1cc(-n2nnc(C(=O)N3CCC(N4CCCCC4)CC3)c2-c2ccncc2)ccc1F    602
10. Clc1ccc(OCc2nc(-c3ccc4c(c3)ncn4CCN3CCCC3)no2)cc1    690

---

- PROTOCOL: gradient 5% acetonitrile 3 min, to 50% in 2 min, to 85% in 15 min, held 3 min, 100 µL/min
- MEASUREMENT SETUP: column: Zorbax Extend-C18 2.1 x 50 mm; eluents: water / acetonitrile, 0.1% formic acid
MEASUREMENT NAME: RP-LC retention time (s)

1. O=C(Nc1ccc2c(c1)CN(S(=O)(=O)c1ccccc1)CC2)c1cc(-c2ccco2)on1    1010
2. COc1ccc(-c2noc(C3CCCN3C(=O)Nc3ccc(C)cc3C)n2)cc1 (centres undefined)    925
3. O=C(c1ccccc1)C(c1ccccc1)C1(O)C(=O)Nc2c(Cl)cc(Cl)cc21 (centres undefined)    949
4. Cc1ccc2oc(CN3CCN(C(=O)Nc4ccccc4F)CC3)nc2c1    699
5. O=C(Cc1cccs1)Nc1nnc(SCC(=O)N2CCCc3ccccc32)s1    805
6. COCc1cc(=O)n(CCc2ccccc2)c(N2CCCC2)n1    816

[I] CCc1ccc(NS(=O)(=O)c2cc(-c3nc(C)cs3)cs2)cc1
[II] CCn1nccc1C(=O)NC1CCN(c2ncnc3c2CCC3)C1 (centres undefined)
Compare I and II and name the one whose reported RP-LC retention time is smaller. Let me know the label of the one you choose.
II
(II: 585 s, I: 1030 s)

---

- PROTOCOL: gradient 5% acetonitrile 3 min, to 50% in 2 min, to 85% in 15 min, held 3 min, 100 µL/min
- MEASUREMENT SETUP: column: Zorbax Extend-C18 2.1 x 50 mm; eluents: water / acetonitrile, 0.1% formic acid
MEASUREMENT NAME: RP-LC retention time (s)

1) COC(=O)c1cccc(NC(=O)c2cnc3c(c2)c(=O)n(C)c(=O)n3-c2ccccc2)c1    874
2) COCCN1C(=O)CCC2(CNC(=O)c3cnc(C)cn3)CCC=C12 (stereo not given)    676
3) CC(C)NC(=O)c1ccc(-c2ccc(N3CCSCC3)nc2)cc1    663
4) O=C(NCc1ccccn1)C1CC(=O)N(CCc2c[nH]c3ccc(Cl)cc23)C1 (stereo not given)    627
5) CCn1cc(C)c(C(=O)O)c1CC(=O)Nc1ccc(F)cc1F    811

---

- PROTOCOL: gradient 5% acetonitrile 3 min, to 50% in 2 min, to 85% in 15 min, held 3 min, 100 µL/min
- MEASUREMENT SETUP: column: Zorbax Extend-C18 2.1 x 50 mm; eluents: water / acetonitrile, 0.1% formic acid
MEASUREMENT NAME: RP-LC retention time (s)

Worked set:
1) Cc1cccc(N2CCN(S(=O)(=O)c3cc4n(c3)CCCNC4=O)CC2)c1    758
2) Cc1cnc(C(=O)N2CC(n3cc(COc4ccc(F)cc4)nn3)C2)cn1    731
3) O=C(NCC1CC1)C1CCN(C(=O)c2ncn3c2COC(c2ccccc2)C3)CC1 (centres undefined)    681
4) COc1ccc(OC)c(NC(=O)N(C)CCc2noc(COc3ccccc3)n2)c1    936
5) COC(=O)c1ccc(NC(=O)C2CC(=O)N(CCc3c[nH]c4ccc(F)cc34)C2)cc1 (centres undefined)    799
6) COc1ccccc1N1CCN(c2ncc(S(=O)(=O)c3ccccc3)c(N)n2)CC1    903
7) O=C(Cn1cc(-c2ccccc2)c(N2CCOCC2)n1)N1CCN(c2ccccc2F)CC1    978

[I] CC1=C(c2ccc(C)cc2)S(=O)(=O)N=C1N1CCCN(C(=O)Nc2ccccc2)CC1
[II] O=c1c2ccccc2nc2n1CCC2O (centres undefined)
Of the two listed items, which has the higher RP-LC retention time? First: I Second: II Let me know the label of the one you choose.
I
